I'd appreciate it if you could supply emission maximum values for the items below.
- Method Description: solvent given as SMILES
- Experimental Setup: in CCCO
Give the quantity in nm, number only.

Problem: Return value of emission maximum for input COc1ccc(OC)c(C=O)c1 , no commentary.
Solution: 458

Problem: Return value of emission maximum for input c1ccc(-c2cc(-c3ccc4ccc5c(-c6ccnc(-c7ccccn7)c6)ccc6ccc3c4c65)ccn2)nc1 , no commentary.
Solution: 429

Problem: Return value of emission maximum for input CN(C)c1ccc(/C=C/C=C/c2nc3ccccc3s2)cc1 , no commentary.
Solution: 533

Problem: Return value of emission maximum for input COc1ccc2c(CC(=O)NN)coc2c1 , no commentary.
Solution: 396

Problem: Return value of emission maximum for input CCN(CC)c1ccc2cc(-c3ccc(S(C)(=O)=O)cc3)oc(=O)c2c1 , no commentary.
Solution: 480

Problem: Return value of emission maximum for input COCCOCCOc1cc(C=O)c(OCCOCCOC)cc1C=O , no commentary.
Solution: 464

Problem: Return value of emission maximum for input COCCOCCOc1ccc(OCCOCCOC)c(C=O)c1 , no commentary.
Solution: 460
